// data source = ChEMBL document CHEMBL1141818

- Tested on: HCT-8
- assay_protocol: Cytotoxicity against human HCT8 cells
- Format: functional, cell-based
measurement_label: IC50

{"compound": "CCCCCCCCCCCC[C@H](O)[C@@H]1CC[C@H]([C@H](O)CCCCC(O)CCCCC[C@@H](O)CC2=C[C@@](C)(O)OC2=O)O1 (stereo partly drawn)", "IC50": "< 10 µg/mL"}
{"compound": "CCCCCCCCCCCC[C@@H](O)[C@H](O)CC[C@@H](O)[C@H](O)CCCC[C@H](O)CCCCC[C@H](CC1=C[C@@](C)(O)OC1=O)OC(C)=O [DONNAIENIN D]", "IC50": "> 10 µg/mL"}

Now, please, on to the next compound.
Look up IC50 for this compound: CCCCCCCCCCCC[C@@H](O)[C@H]1CC[C@H]([C@H](O)CCCC[C@H](O)CCCCC[C@H](CC2=C[C@@](C)(O)OC2=O)OC(C)=O)O1 [DONNAIENIN C]
> 10 µg/mL

* * *

- System: MCF7
- assay_protocol: Cytotoxicity against human MCF7 cells
- Assay type: functional
- setup_conditions: Homo sapiens, MCF7; read-out: ED50 (the source's name)
measurement_label: EC50

{"compound": "CCCCCCCCCCCC[C@H](O)[C@@H]1CC[C@H]([C@H](O)CCCCCC(=O)CCCC[C@@H](O)CC2=C[C@H](C)OC2=O)O1 [MOSIN C]", "observed_measurement": "> 1 µg/mL"}
{"compound": "CCCCCCCCCCCC[C@H](O)[C@H]1CC[C@H]([C@H](O)CCCCCC(=O)CCCC[C@@H](O)CC2=C[C@H](C)OC2=O)O1 [MOSIN B]", "observed_measurement": "> 1 µg/mL"}
{"compound": "CCCCCCCCCC[C@@H](O)[C@H]1CC[C@H]([C@H](O)CC[C@H](O)[C@@H]2CC[C@@H](CCCCC[C@@H]3CC(CC(C)=O)C(=O)O3)O2)O1 (stereo not given in full)", "observed_measurement": "> 1 µg/mL"}
{"compound": "CCCCCCCCCC/C=C\\CC[C@@H](O)[C@H]1CC[C@H]([C@H](O)CCCCCC(=O)CCCC[C@@H]2CC(CC(C)=O)C(=O)O2)O1 (stereo not given in full)", "observed_measurement": "> 1 µg/mL"}

Now, please, on to the next compound.
Look up EC50 for this compound: CCCCCCCCCC[C@@H]1O[C@H]([C@@H]2CC[C@H]([C@H](O)CCCCCCCCCC[C@@H](O)CC3=C[C@H](C)OC3=O)O2)CC[C@H]1O [JIMENEZIN]
> 0.1 µg/mL
